# reported melting point; entries follow
Assay Metric: melting point

>>> obs_value("CCN1C(=O)CCc2cc(CNS(=O)(=O)c3ccccc3C)ccc21")
"203 to 206 °C"
>>> obs_value("CCCN1C(=O)CCc2cc(CNS(=O)(=O)c3ccc(C(F)(F)F)cc3)ccc21")
"138 to 140 °C"
>>> obs_value("CCN1C(=O)CCc2cc(CNS(=O)(=O)c3cn(C)cn3)ccc21")
"165 to 167 °C"
>>> obs_value("C/C=C/S(=O)(=O)NCc1ccc2c(c1)CCC(=O)N2CCC")
"95 to 99 °C"
>>> obs_value("CCN1C(=O)CCc2cc(CNS(=O)(=O)c3ccsc3)ccc21")
"128 to 131 °C"

* * *

Tested on: soybean plants (variety S20-G7)
Experiment: Reduced plant water use in soybean (foliar spray, repeated weighing of pots)
Format: in vivo
Conditions: Glycine max, foliar, 48 h, Table B1, sprayed at 500 μM, vs negative control, 2 DAA p.m. (14:00-19:50), read-out: % WU 2 DAA PM
Assay Metric: change in vivo at 500 µM (%)

>>> obs_value("CCCN1C(=O)CCc2cc(CNS(=O)(=O)c3cccc4ccccc34)ccc21 [Compound 3.074]")
0
>>> obs_value("CCCN1C(=O)CCc2cc(CNS(=O)(=O)c3c(F)cccc3F)ccc21 [Compound 3.005]")
-12
>>> obs_value("CCCn1c(=O)ccc2cc(CNS(=O)(=O)c3ccc(F)cc3F)ccc21 [Compound 7.006]")
0
>>> obs_value("CCN1C(=O)CCc2cc(CNS(=O)(=O)c3ccc(C)cc3C)ccc21 [Compound 2.014]")
-1.7
>>> obs_value("CCCn1c(=O)ccc2cc(CNS(=O)(=O)c3ccc(F)cc3)ccc21 [Compound 7.009]")
-1.7
>>> obs_value("CCCN1C(=O)CCc2cc(CNS(=O)(=O)c3ccc(OC(C)C)cc3)ccc21 [Compound 3.016]")
0
>>> obs_value("CCCN1C(=O)CCc2cc(CNS(=O)(=O)c3ccccc3F)ccc21 [Compound 3.007]")
-7.6
>>> obs_value("CCCN1C(=O)CCc2cc(CNS(=O)(=O)c3ccc(C)cc3)ccc21 [Compound 3.012]")
3
>>> obs_value("C/C=C/S(=O)(=O)NCc1ccc2c(c1)CCC(=O)N2CCC [Compound 3.060]")
-2.7
>>> obs_value("CCCn1c(=O)ccc2cc(CNS(=O)(=O)c3ccccc3)ccc21 [Compound 7.001]")
-2.5
>>> obs_value("CCN1C(=O)CCc2cc(CNS(=O)(=O)c3ccc(OC)cc3)ccc21 [Compound 2.010]")
-2.4
>>> obs_value("CCN1C(=O)CCc2cc(CNS(=O)(=O)c3ccc(F)cc3F)ccc21 [Compound 2.006]")
-7.3
>>> obs_value("CCCN1C(=O)CCc2cc(C3(NS(=O)(=O)c4ccccc4)CC3)ccc21 [Compound 15.001]")
-7.2
>>> obs_value("CCCN1C(=O)CCc2cc(CNS(=O)(=O)CCC(F)(F)F)ccc21 [Compound 3.067]")
-9.5
>>> obs_value("CCCN1C(=O)CCc2cc(CNS(=O)(=O)c3ccccc3)ccc21 [Compound 3.001]")
-5.8

* * *

System: soybean plants (variety S20-G7)
Experiment: Reduced plant water use in soybean (foliar spray, repeated weighing of pots)
Format: in vivo
Details: Glycine max, foliar, 48 h, Table B1, sprayed at 500 μM, vs negative control, 2 DAA p.m. (14:00-19:50), read-out: % WU 2 DAA PM
Assay Metric: change in vivo at 500 µM (%)

>>> obs_value("CCCN1C(=O)CCc2cc(CNS(=O)(=O)c3ccc(F)cc3F)ccc21 [Compound 3.006]")
-14.9
>>> obs_value("O=C1CCc2cc(CNS(=O)(=O)c3ccc(F)cc3F)ccc2N1CC1CC1 [Compound 10.006]")
-17.8
>>> obs_value("CCCN1C(=O)CCc2cc(CNS(=O)(=O)c3ccccc3C)ccc21 [Compound 3.011]")
-2.4
>>> obs_value("CCCN1C(=O)CCc2cc(CNS(=O)(=O)c3ccc(C)s3)ccc21 [Compound 3.061]")
1.2
>>> obs_value("CCN1C(=O)CCc2cc(CNS(=O)(=O)c3ccccc3F)ccc21 [Compound 2.007]")
-5.7
>>> obs_value("CCN1C(=O)CC(C)c2cc(CNS(=O)(=O)c3ccccc3)ccc21 (stereo not drawn) [Compound 20.001]")
-50.5
>>> obs_value("CCN1C(=O)CCc2cc(CNS(=O)(=O)c3ccc(C)s3)ccc21 [Compound 2.061]")
-1.2
>>> obs_value("CCCN1C(=O)CCc2cc(C3(NS(=O)(=O)c4ccc(F)cc4F)CC3)ccc21 [Compound 15.006]")
-17.8
>>> obs_value("CCCN1C(=O)CCc2cc(CNS(=O)(=O)c3cn(C)cn3)ccc21 [Compound 3.063]")
-5
>>> obs_value("CC1CC(=O)N(CC2CC2)c2ccc(CNS(=O)(=O)c3ccccc3)cc21 (stereo not drawn) [Compound 24.001]")
-38.3
>>> obs_value("CCCN1C(=O)CCc2cc(CNS(=O)(=O)CCCC(F)(F)F)ccc21 [Compound 3.020]")
-4.2
>>> obs_value("CCCN1C(=O)CCc2cc(CNS(=O)(=O)c3ccccc3)cc(F)c21 [Compound 17.001]")
-26.3
